Target: VACV strain WR IFNα/βBP B18 (vaccinia virus strain Western Reserve, UniProt P25213 20-351)
Test: SPR
reported-endpoint: kon (M⁻¹ s⁻¹)

>>> value_measured("mIFNβ (ligand) INYKQLQLQERTNIRKCQELLEQLNGKINLTYRADFKIPMEMTEKMQKSYTAFAIQEMLQNVFLVFRNNFSSTGWNETIVVRLLDELHQQTVFLKTVLEEKQEERLTWEMSSTALHLKSYYWRVQRYLKLMKYNSYAWMVVRAEIFRNFLIIRRLTRNFQN")
104000
>>> value_measured("mIFNα-A (ligand) CDLPHTYNLRNKRALKVLAQMRRLPFLSCLKDRQDFGFPLEKVDNQQIQKAQAIPVLRDLTQQTLNLFTSKASSAAWNATLLDSFCNDLHQQLNDLQTCLMQQVGVQEPPLTQEDALLAVRKYFHRITVYLREKKHSPCAWEVVRAEVWRALSSSVNLLPRLSEEKE")
"1.72e+06"
>>> value_measured("mIL-28A (ligand) DPVPRATRLPVEAKDCHIAQFKSLSPKELQAFKKAKDAIEKRLLEKDLRCSSHLFPRAWDLKQLQVQERPKALQAEVALTLKVWENMTDSALATILGQPLHTLSHIHSQLQTCTQLQATAEPRSPSRRLSRWLHRLQEAQSKETPGCLEASVTSNLFRLLTRDLKCVANGDQCV")
832000
>>> value_measured("hIL-28A (ligand) VPVARLHGALPDARGCHIAQFKSLSPQELQAFKRAKDALEESLLLKDCRCHSRLFPRTWDLRQLQVRERPMALEAELALTLKVLEATADTDPALVDVLDQPLHTLHHILSQFRACIQPQPTAGPRTRGRLHHWLYRLQEAPKKESPGCLEASVTFNLFRLLTRDLNCVASGDLCV")
245000

The reported numbers originate from paper PMC2857867.
